B1: SAM and SH3 domain-containing protein 1, residues 630 to 700; numbered along this chain, O94885 (parent)
chain: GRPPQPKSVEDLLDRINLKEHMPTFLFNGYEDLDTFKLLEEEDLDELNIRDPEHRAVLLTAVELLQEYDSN

# Variants of: B1
# testName: abundance fitness (aPCA) (normalised: wild type 0, dead -1); higher = more abundant; growth selection in yeast, the domain comes from the species named
# conditionsUsed: Homo sapiens
# if value of abundance fitness reaches -0.8, tag Criterion met; if it stays below, tag Criterion not met

# count of solved cases: 2
L65D    Criterion met
M22F    Criterion met

Determine whether measured abundance fitness meets or exceeds -0.8 for R50E Criterion met

Determine whether measured abundance fitness meets or exceeds -0.8 for D11A Criterion met

Determine whether measured abundance fitness meets or exceeds -0.8 for T60I Criterion not met

Cited source for all entries: the Human Domainome abundance scans (Beltran et al. 2025)
